Source of measurements: patent US20260098080A1

Target: T1, human MASP-2cf CCP1-CCP2-SP (human, UniProt O00187 298-686, limits assumed)
T1 construct: domain: CCP1-CCP2-SP; also called human MASP-2 catalytic fragment
T1 sequence (O00187 298-686 limits assumed): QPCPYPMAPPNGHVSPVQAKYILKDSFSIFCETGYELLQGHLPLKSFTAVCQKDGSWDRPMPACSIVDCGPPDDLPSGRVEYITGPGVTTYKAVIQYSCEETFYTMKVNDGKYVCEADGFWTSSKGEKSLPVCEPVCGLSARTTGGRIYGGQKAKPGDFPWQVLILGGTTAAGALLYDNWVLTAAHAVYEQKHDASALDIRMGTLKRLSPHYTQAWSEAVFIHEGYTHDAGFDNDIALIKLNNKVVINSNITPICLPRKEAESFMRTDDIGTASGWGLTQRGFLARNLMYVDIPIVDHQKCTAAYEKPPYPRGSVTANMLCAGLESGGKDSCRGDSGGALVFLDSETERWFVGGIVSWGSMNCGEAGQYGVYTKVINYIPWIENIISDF
Test: SPR, target immobilised
Where no end group is shown, it is not given here.
Would you mind telling me the reported koff of each entry?
One number for each entry, in s⁻¹.

- binder: "EVO24 (designed binder, not fully specified; cysteine pairing not given here, Modified TFPI-D2 Kunitz domain; made as m1) KPDFCFLENDPGPCRALKRRYFYNNQTKQCERFYYGGCLGNMNNFETLEECKNICEDG"
  koff, s⁻¹: 0.000622

Now let's try a different one.
Item EVO224 (designed binder, not fully specified; cysteine pairing not given here, Modified TFPI-D2 Kunitz domain; made as m1) KPDFCFLENDPGVCRALAVRYFYNNQTKQCERFYYGGCLGNMNNFVTLEECKNICEDG has what recorded koff?
0.000617
